Source of measurements: PubChem BioAssay (NCI)

# Procedure Details: NCI Yeast Anticancer Drug Screen. Data for the bub3 strain (AID 167)
# Condition Label: S. cerevisiae bub3 mutant strain, at 50.0 µM, active compounds read high
The panel holds about 79,000 compounds, 15% with a hit somewhere; the sample as a whole holds those more often.
Measurement Kind: growth inhibition (%)
Record the value in %, omitting the unit from your answer.

Examples with their reported growth inhibition follow.
>>> print(df.to_string())
                                   molecule  measured_value
0  N#CNC(=Nc1ccccc1)[N](C#N)[Sn]([c]1ccccc1)([c]1ccccc1)[c]1ccccc1            96.5
1  O=c1c2c(oc(=Nc3ccccc3)n1-c1ccccc1)CC1(CCCCC1)C2           -10.9

Incoming: Data request, read-out growth inhibition, for CC1=NN(C(=O)CC(=O)Nc2cccc(C)c2)C(=O)C1N=Nc1ccc(C(=O)O)cc1 (stereo not given)
Outgoing: -2.7

Incoming: Data request, read-out growth inhibition, for CCOC(=O)C1=C(C)N(c2ccccc2)C2=C(C(=O)N(c3ccccc3)C2c2ccccc2)C1c1ccccc1 (stereo not given)
Outgoing: -21.7

Incoming: Data request, read-out growth inhibition, for CC(O)COC1CCCCC1 (stereo not given)
Outgoing: -3.95
